So I've got a bunch of compounds here, and I need their IC50 values.
target: human NPY Y2 (Homo sapiens); test: NPY Y2 receptor membrane binding, [125I]PYY; conditions: membrane protein; 25 pM [125I]PYY; test compounds at 5 µM final concentration; read-out: IC50 (µM) NPY receptor indicated hY2
Sequence (P49146 whole entry): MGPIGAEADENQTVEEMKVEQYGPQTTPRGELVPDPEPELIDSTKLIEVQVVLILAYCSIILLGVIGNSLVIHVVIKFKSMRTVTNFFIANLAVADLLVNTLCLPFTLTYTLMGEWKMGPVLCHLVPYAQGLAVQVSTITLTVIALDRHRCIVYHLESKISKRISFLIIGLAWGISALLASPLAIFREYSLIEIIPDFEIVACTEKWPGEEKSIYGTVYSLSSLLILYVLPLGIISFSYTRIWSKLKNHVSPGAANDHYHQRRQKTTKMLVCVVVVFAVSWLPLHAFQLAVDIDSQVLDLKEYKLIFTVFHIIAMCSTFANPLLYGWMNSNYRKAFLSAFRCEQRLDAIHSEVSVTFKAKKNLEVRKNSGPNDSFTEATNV

Ask: Item Cc1ccc(SCC(C(=O)c2ncc[nH]2)c2ccccc2)cc1 (stereo not drawn) [Compound 2] has what recorded IC50?
Result: > 5 µM

Ask: For the compound Cc1ccc(S(=O)(=O)CC(C(=O)c2ccc3ccccc3n2)c2ccccc2)cc1 (stereo not drawn) [Compound 1] , what IC50 is on record?
Result: > 5 µM

Ask: Give its IC50 value. Item: Cc1ccc(S(=O)(=O)CC(C(=O)c2ncc[nH]2)c2ccccc2)cc1 (stereo not drawn) [Compound 3]
Result: > 5 µM

Ask: Any idea what its IC50 is? The compound is O=C(c1nc2ccccc2[nH]1)C(CS(=O)(=O)c1cccc2ccccc12)c1ccccc1 (stereo not drawn) [Compound 12]
Result: > 5 µM

Ask: Look up IC50: Cc1ccc(S(=O)(=O)CC(C(=O)c2nc3ccccc3s2)c2ccccc2)cc1 (stereo not drawn) [Compound 6]
Result: > 5 µM

Ask: Can you look up the measured IC50 of Cc1ccc(S(=O)(=O)CC(C(=O)c2nc3cc(C)c(C)cc3[nH]2)c2ccccc2)cc1 (stereo not drawn) [Compound 7] for me?
Result: 8.3 µM

###

target: human Y4/PP1 (Homo sapiens); experiment: NPY Y4/PP1 receptor membrane binding, [125I] human PP; conditions: membrane protein; 50 pM [125I] human PP; test compounds at 5 µM final concentration; read-out: IC50 (µM) NPY receptor indicated hY4/pp1
Sequence (P50391 whole entry): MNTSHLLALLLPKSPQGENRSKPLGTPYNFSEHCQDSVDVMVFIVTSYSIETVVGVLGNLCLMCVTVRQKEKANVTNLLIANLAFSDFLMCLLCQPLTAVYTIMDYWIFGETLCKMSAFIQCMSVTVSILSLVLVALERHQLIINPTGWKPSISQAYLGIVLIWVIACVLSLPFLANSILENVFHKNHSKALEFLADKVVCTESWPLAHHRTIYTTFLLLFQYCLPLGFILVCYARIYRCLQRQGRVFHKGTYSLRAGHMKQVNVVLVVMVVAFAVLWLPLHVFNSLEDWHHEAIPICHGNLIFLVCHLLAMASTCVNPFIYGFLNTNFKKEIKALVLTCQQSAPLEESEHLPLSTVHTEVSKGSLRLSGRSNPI
Please respond with reported IC50 for every item in the list.

Ask: Name the recorded IC50 for Cc1ccc(S(=O)(=O)CC(C(=O)c2nc3ccccc3[nH]2)c2ccc(F)cc2)cc1 (stereo not drawn) .
Result: > 5 µM

Ask: Value lookup for IC50; key = O=C(c1nc2ccccc2[nH]1)C(CS(=O)(=O)c1ccc(Br)cc1)c1ccccc1 (stereo not drawn)
Result: > 5 µM

Ask: # query: IC50 of entry Cc1ccc(S(=O)(=O)CC(C(=O)c2nc3ccccc3s2)c2ccccc2)cc1 (stereo not drawn)
Result: > 5 µM

Ask: Find the recorded IC50 belonging to COc1ccc(S(=O)(=O)CC(C(=O)c2nc3ccccc3[nH]2)c2ccccc2)cc1 (stereo not drawn) and report it.
Result: > 5 µM

Ask: What IC50 value was documented for this molecule, Cc1ccc(S(=O)(=O)CC(C(=O)c2nc3cc(C)ccc3[nH]2)c2ccccc2)cc1 (stereo not drawn) ?
Result: > 5 µM

Ask: Need IC50, item O=C(c1nc2ccccc2[nH]1)C(CS(=O)(=O)c1ccccc1)c1ccccc1 (stereo not drawn)
Result: > 5 µM

Ask: For the molecule shown here, COc1ccc2[nH]c(C(=O)C(CS(=O)(=O)c3ccc(C)cc3)c3ccccc3)nc2c1 (stereo not drawn) , give the reported IC50.
Result: > 5 µM

Ask: Would you mind telling me what IC50 value was observed for Cc1ccc(S(=O)(=O)CC(C(=O)c2nc3cc(C)c(C)cc3[nH]2)c2ccccc2)cc1 (stereo not drawn) ?
Result: > 5 µM

Ask: Item Cc1ccc(SCC(C(=O)c2ncc[nH]2)c2ccccc2)cc1 (stereo not drawn) has what recorded IC50?
Result: > 5 µM

Ask: // returns reported IC50 for input Cc1ccc(S(=O)(=O)CC(C(=O)c2ccc3ccccc3n2)c2ccccc2)cc1 (stereo not drawn)
Result: > 5 µM

Ask: Value lookup for IC50; key = O=C(c1nc2ccccc2[nH]1)C(CS(=O)(=O)c1cccc2ccccc12)c1ccccc1 (stereo not drawn)
Result: > 5 µM

Ask: // returns reported IC50 for input Cc1ccc(SCC(C(=O)c2nc3ccccc3[nH]2)c2ccccc2)cc1 (stereo not drawn)
Result: > 5 µM

Ask: For the molecule Cc1ccc(S(=O)(=O)CC(C(=O)c2ncc[nH]2)c2ccccc2)cc1 (stereo not drawn) , what IC50 is on record?
Result: > 5 µM

Ask: Endpoint output: IC50 of Cc1ccc([S+]([O-])CC(C(=O)c2nc3ccccc3[nH]2)c2ccccc2)cc1 (stereo not drawn) . Value?
Result: > 5 µM

Ask: Item under review: Cc1ccc(S(=O)(=O)CC(C(=O)c2nc3ccccc3[nH]2)c2ccccc2)cc1 (stereo not drawn) . Reported IC50?
Result: > 5 µM
